Recorded Kd values for a group of compounds are listed next.
Biological target: PPIP5K2^1-366 (human PPIP5K2 kinase domain) (Homo sapiens, UniProt O43314)
Construct: one comprised residues 1–366
Sequence (O43314 1-366): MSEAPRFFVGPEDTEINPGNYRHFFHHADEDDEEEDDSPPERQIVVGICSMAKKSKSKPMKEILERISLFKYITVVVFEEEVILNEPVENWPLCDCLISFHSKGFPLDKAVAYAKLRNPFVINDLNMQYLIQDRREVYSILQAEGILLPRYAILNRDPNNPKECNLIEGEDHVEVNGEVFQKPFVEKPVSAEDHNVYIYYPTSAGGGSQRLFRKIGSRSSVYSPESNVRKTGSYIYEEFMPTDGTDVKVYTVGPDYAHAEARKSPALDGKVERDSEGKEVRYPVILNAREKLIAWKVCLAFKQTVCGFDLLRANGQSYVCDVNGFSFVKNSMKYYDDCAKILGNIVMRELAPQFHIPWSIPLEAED
Experiment: Isothermal titration calorimetry of ligand binding to PPIP5K2KD
Conditions: ITC, 7.5 μM PPIP5K2^1-366 in cell, 75 μM ligand in syringe, 25°C, pH 7.2, 1mM AMP-PNP, 1mM MgCl2; read-out: Kd (apparent)
Numbers only here, please. The scale is nM.

# example entries with known answers
O=P(O)(O)O[C@H]1[C@@H](OP(=O)(O)O)[C@H](OP(=O)(O)O)[C@@H](OP(=O)(O)OP(=O)(O)O)[C@H](OP(=O)(O)O)[C@H]1OP(=O)(O)O [5PP-IP5, 5-diphosphoinositol pentakisphosphate]	123
O=C(CP(=O)(O)O)O[C@@H]1[C@@H](OP(=O)(O)O)[C@H](OP(=O)(O)O)[C@H](OP(=O)(O)O)[C@H](OP(=O)(O)O)[C@H]1OP(=O)(O)O [5PA-IP5]	90
O=P(O)(O)CP(=O)(O)O[C@H]1[C@H](OP(=O)(O)O)[C@@H](OP(=O)(O)O)[C@@H](OP(=O)(O)O)[C@@H](OP(=O)(O)O)[C@@H]1OP(=O)(O)O [5PCP-IP5]	100
O=P(O)(O)O[C@H]1[C@@H](OP(=O)(O)O)[C@H](OP(=O)(O)O)[C@@H](OP(=O)(O)C(F)(F)P(=O)(O)O)[C@H](OP(=O)(O)O)[C@H]1OP(=O)(O)O [5PCF2P-IP5]	246

Read the next record carefully.
Form: compound = O=C(N[C@@H]1[C@@H](OP(=O)(O)O)[C@H](OP(=O)(O)O)[C@H](OP(=O)(O)O)[C@H](OP(=O)(O)O)[C@H]1OP(=O)(O)O)C(F)(F)P(=O)(O)O [5PCF2Am-IP5] ; Kd = 90

====

target: PPIP5K2^1-366 (human PPIP5K2 kinase domain) (Homo sapiens, UniProt O43314); construct: one comprised residues 1–366; made in house; experiment: Isothermal titration calorimetry of ligand binding to PPIP5K2KD; conditions: ITC, 7.5 μM PPIP5K2^1-366, 75 μM ligand, 25°C, pH 7.2
Assign labels as follows, please: t for ΔH below -5 kcal/mol; f for ΔH equal to or exceeding -5 kcal/mol.

See these solved cases before continuing.
O=P(O)(O)CP(=O)(O)O[C@H]1[C@H](OP(=O)(O)O)[C@@H](OP(=O)(O)O)[C@@H](OP(=O)(O)O)[C@@H](OP(=O)(O)O)[C@@H]1OP(=O)(O)O [5PCP-IP5]	f
O=P(O)(O)O[C@H]1[C@@H](OP(=O)(O)O)[C@H](OP(=O)(O)O)[C@@H](OP(=O)(O)OP(=O)(O)O)[C@H](OP(=O)(O)O)[C@H]1OP(=O)(O)O [5PP-IP5, 5-diphosphoinositol pentakisphosphate]	t
O=C(N[C@@H]1[C@@H](OP(=O)(O)O)[C@H](OP(=O)(O)O)[C@H](OP(=O)(O)O)[C@H](OP(=O)(O)O)[C@H]1OP(=O)(O)O)C(F)(F)P(=O)(O)O [5PCF2Am-IP5]	t
O=C(CP(=O)(O)O)O[C@@H]1[C@@H](OP(=O)(O)O)[C@H](OP(=O)(O)O)[C@H](OP(=O)(O)O)[C@H](OP(=O)(O)O)[C@H]1OP(=O)(O)O [5PA-IP5]	t

// switching to the query molecule
Problem: Quick check: ΔH of O=P(O)(O)O[C@H]1[C@@H](OP(=O)(O)O)[C@H](OP(=O)(O)O)[C@@H](OP(=O)(O)C(F)(F)P(=O)(O)O)[C@H](OP(=O)(O)O)[C@H]1OP(=O)(O)O [5PCF2P-IP5] under -5 kcal/mol?
Result: f

====

Recorded log10 of ΔS values for a group of compounds are listed next.
Biological target: PPIP5K2^1-366 (human PPIP5K2 kinase domain) (Homo sapiens, UniProt O43314)
Construct: one comprised residues 1–366; made in house
Sequence (O43314 1-366): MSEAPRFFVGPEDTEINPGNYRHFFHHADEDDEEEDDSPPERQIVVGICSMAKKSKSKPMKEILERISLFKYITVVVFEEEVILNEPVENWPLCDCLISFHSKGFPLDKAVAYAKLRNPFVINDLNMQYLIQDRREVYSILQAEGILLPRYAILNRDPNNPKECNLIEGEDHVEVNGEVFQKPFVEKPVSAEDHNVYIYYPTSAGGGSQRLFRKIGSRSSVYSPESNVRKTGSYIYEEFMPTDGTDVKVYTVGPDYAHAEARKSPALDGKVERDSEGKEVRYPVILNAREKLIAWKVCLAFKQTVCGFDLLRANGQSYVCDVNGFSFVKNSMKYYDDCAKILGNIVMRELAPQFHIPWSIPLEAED
Experiment: Isothermal titration calorimetry of ligand binding to PPIP5K2KD
Conditions: ITC, 7.5 μM PPIP5K2^1-366, 75 μM ligand, 25°C, pH 7.2
Scale: log10; quantity: ΔS; unit before log: kJ/mol/deg

# example entries with known answers
O=P(O)(O)CP(=O)(O)O[C@H]1[C@H](OP(=O)(O)O)[C@@H](OP(=O)(O)O)[C@@H](OP(=O)(O)O)[C@@H](OP(=O)(O)O)[C@@H]1OP(=O)(O)O [5PCP-IP5]	-1.17
O=P(O)(O)O[C@H]1[C@@H](OP(=O)(O)O)[C@H](OP(=O)(O)O)[C@@H](OP(=O)(O)C(F)(F)P(=O)(O)O)[C@H](OP(=O)(O)O)[C@H]1OP(=O)(O)O [5PCF2P-IP5]	-1.14
O=C(CP(=O)(O)O)O[C@@H]1[C@@H](OP(=O)(O)O)[C@H](OP(=O)(O)O)[C@H](OP(=O)(O)O)[C@H](OP(=O)(O)O)[C@H]1OP(=O)(O)O [5PA-IP5]	-1.89
O=C(N[C@@H]1[C@@H](OP(=O)(O)O)[C@H](OP(=O)(O)O)[C@H](OP(=O)(O)O)[C@H](OP(=O)(O)O)[C@H]1OP(=O)(O)O)C(F)(F)P(=O)(O)O [5PCF2Am-IP5]	-2.15

Log: PPIP5K2^1-366 (human PPIP5K2 kinase domain) (Homo sapiens, UniProt O43314), compound O=P(O)(O)O[C@H]1[C@@H](OP(=O)(O)O)[C@H](OP(=O)(O)O)[C@@H](OP(=O)(O)OP(=O)(O)O)[C@H](OP(=O)(O)O)[C@H]1OP(=O)(O)O [5PP-IP5, 5-diphosphoinositol pentakisphosphate] , log10 of ΔS = -1.34
